# System tested: Neu5Ac(a2-8)Neu5Ac(a2-3)[GalNAc(b1-4)]Gal(b1-4)Glc
# Assay overview: glycan array binding signal (z-score within array); higher = stronger binding
# Study conditions: glycan notation: IUPAC condensed, linker removed
Many of the other results were omitted from the sample, so the strongest signals are more common in it than they were.
Value type: glycan array binding signal (z-score)
Give bare numbers.

input: What does the data say about its glycan array binding signal (z-score)? Entry: Wzz (Escherichia coli) (protein) MRTWKFPSVRVMMRVENNNVSGQNHDPEQIDLIDLLVQLWRGKMTIIISVIVAIVLAIGYLAVAKEKWTSTAIITQPDVGQIAGYNNAMNVIYGQAAPKVSDLQETLIGRFSSAFSALAETLDNQEEPEKLTIEPSVKNQQLPLTVSYVGQTAEGAQMKLAQYIQQVDDKVNQELEKDLKDNIALGRKNLQDSLRTQEVVAQEQKDLRIRQIQEALQYANQAQVTKPQIQQTGEDITQDTLFLLGSEALESMIKHEATRPLVFSSNYYQTRQNLLDIDNLDVDKLDIHAYLYVMKPTLPIRRDSPKKAITLILAVLLGGMVGAGIVLGRNALRNYNAK
output: 1.61

Values compiled from the supplement of paper PMC8728848.
